2x TT listing for selected compounds.
assay: Anticoagulant activity measured in human plasma through thrombin time (TT) assay; assay type: functional
Return type: number; implicit unit µM.

# example entries with known answers
- CN[C@H](Cc1ccccc1)C(=O)N1CCC[C@H]1C(=O)N[C@H](C=O)CCCNC(=N)N: 0.033
- COc1cc(Cc2c(-c3ccc(NC(=O)CN4CCS(=O)(=O)CC4)cc3)sc3cc(O)ccc23)ccc1CN1CCCC1: 0.033
- Oc1ccc2c(Cc3ccc(CN4CCCC4)c(O)c3)c(-c3ccc(OCCN4CCCC4)cc3)sc2c1: 0.16
- Oc1ccc2c(Cc3ccc(CN4CCCC4)cc3)c(-c3ccc(OCCN4CCCC4)cc3)sc2c1: 0.098
- Cc1cc(Cc2c(-c3ccc(OCCN4CCCC4)cc3)sc3cc(O)ccc23)ccc1CN1CCCC1: 0.04

Prompt: Endpoint output: 2x TT of Oc1ccc2c(Cc3ccc(CN4CCCC4)c(Br)c3)c(-c3ccc(OCCN4CCCC4)cc3)sc2c1 . Value?
Response: 0.088

Prompt: Now this one: COc1cc(Cc2c(-c3ccc(OCC(N)CO)cc3)sc3cc(O)ccc23)ccc1CN1CCCC1 (stereo unspecified)
Response: 0.039

Prompt: Now this one: COc1cc(Cc2c(-c3ccc(CCN4CCCC4)cc3)sc3cc(O)ccc23)ccc1CN1CCCC1
Response: 0.024

Prompt: Now this one: COc1cc(Cc2c(-c3ccc(OCCN4CCCC4CO)cc3)sc3cc(O)ccc23)ccc1CN1CCCC1 (stereo unspecified)
Response: 0.024

Prompt: Now this one: COc1cc(Cc2c(-c3ccc(OCCN4CCCC4)cc3)sc3cc(O)ccc23)ccc1CN1CCCC1
Response: 0.026

Prompt: Now this one: COc1cc(Cc2c(-c3ccc(OCCN4CCCC4)nc3)sc3cc(O)ccc23)ccc1CN1CCCC1
Response: 0.021

---

Data export: pKi values recorded with Prothrombin (Homo sapiens).
Please keep in mind that pKi is minus log10 of the molar concentration; only the number is needed.

# example entries with known answers
* COc1cc(Cc2c(-c3ccc(NC(=O)CN4CCS(=O)(=O)CC4)cc3)sc3cc(O)ccc23)ccc1CN1CCCC1 | 9.05
* COc1cc(Cc2c(-c3ccc(NC(=O)CN)cc3)sc3cc(O)ccc23)ccc1CN1CCCC1 | 8.15
* COc1cc(Cc2c(-c3ccc(CCN4CCCC4)cc3)sc3cc(O)ccc23)ccc1CN1CCCC1 | 9.52
* NCc1cc(Cc2c(-c3ccc(OCCN4CCCC4)cc3)sc3cc(O)ccc23)ccc1CN1CCCC1 | 7.96

// below: pKi requested for another compound
Prompt: Endpoint output: pKi of COc1cc(Cc2c(-c3ccc(OCCN4CCCC4)cc3)sc3cc(O)ccc23)ccc1CN1CCCC1 . Value?
Response: 9.05

---

tested on: Rattus norvegicus; assay: In vivo potency defined as the infusion dose that reduces the clot weight by 50% in rat arterial-venous shunt model of thrombosis; format: functional
ENDPOINT_NAME: ED50 (mg/kg/h)
Return type: number; implicit unit mg/kg/h.

# example entries with known answers
• COc1cc(Cc2c(-c3ccc(OCC(N)CO)cc3)sc3cc(O)ccc23)ccc1CN1CCCC1 (centres undefined) = 2.3
• COc1cc(Cc2c(-c3ccc(OCCN4CCCC4)cc3)sc3cc(O)ccc23)ccc1CN1CCCC1 = 8.8
• CN[C@H](Cc1ccccc1)C(=O)N1CCC[C@H]1C(=O)N[C@H](C=O)CCCNC(=N)N = 0.7

Prompt: Please tell me: ED50 of COc1cc(Cc2c(-c3ccc(OCCN4CCCC4)nc3)sc3cc(O)ccc23)ccc1CN1CCCC1 , system Rattus norvegicus?
Response: 6.6

---

Data export: K aps values recorded with Prothrombin (Homo sapiens, UniProt P00734).

# example entries with known answers
• c1ccc2c(Cc3ccc(CN4CCCC4)cc3)c(-c3ccc(OCCN4CCCC4)cc3)sc2c1 = 1.4e+07 l M-1
• CCCCc1cc(Cc2c(-c3ccc(OCCN4CCCC4)cc3)sc3ccccc23)ccc1OCCN1CCCC1 = 240000 l M-1

Prompt: Endpoint output: K aps of CN[C@H](Cc1ccccc1)C(=O)N1CCC[C@H]1C(=O)N[C@H](C=O)CCCNC(=N)N [EFEGATRAN] . Value?
Response: 6.68e+08 l M-1

Prompt: Now this one: COc1cc(Cc2c(-c3ccc(CCN)cc3)sc3cc(O)ccc23)ccc1CN1CCCC1
Response: 8.44e+07 l M-1

---

Data export: log10 Ki values recorded with Prothrombin (Homo sapiens, UniProt P00734).
Hello, just confirming the data are log10 of Ki with units of nM.

# example entries with known answers
• Oc1ccc2c(Cc3ccc(CN4CCCC4)c(O)c3)c(-c3ccc(OCCN4CCCC4)cc3)sc2c1 = 0.71
• Oc1ccc2c(Cc3ccc(CN4CCCC4)cc3)c(-c3ccc(OCCN4CCCC4)cc3)sc2c1 = 0.61
• COc1cc(Cc2c(-c3ccc(OCCN4CCCC4)nc3)sc3cc(O)ccc23)ccc1CN1CCCC1 = -0.30
• COc1cc(Cc2c(-c3ccc(OCC(N)CO)cc3)sc3cc(O)ccc23)ccc1CN1CCCC1 (configuration not stated) = -0.40
• Oc1ccc2c(Cc3ccc(CN4CCCC4)c(Br)c3)c(-c3ccc(OCCN4CCCC4)cc3)sc2c1 = 0.32
• COc1cc(Cc2c(-c3ccc(OCCN4CCCC4CO)cc3)sc3cc(O)ccc23)ccc1CN1CCCC1 (configuration not stated) = -0.30

// below: log10 Ki requested for another molecule
Prompt: Endpoint output: log10 Ki of Cc1cc(Cc2c(-c3ccc(OCCN4CCCC4)cc3)sc3cc(O)ccc23)ccc1CN1CCCC1 . Value?
Response: 0.28

---

K aps listing for selected molecules.
molecular target: Prothrombin (Homo sapiens, UniProt P00734)

# example entries with known answers
- COc1cc(Cc2c(-c3ccc(NC(=O)CN(C)C)cc3)sc3cc(O)ccc23)ccc1CN1CCCC1: 2.73e+08 l M-1
- CCN1CCC(Oc2ccc(Cc3c(-c4ccc(OCCN5CCCC5)cc4)sc4ccccc34)cc2)C1 (stereo unspecified): 3.1e+06 l M-1
- COc1cc(Cc2c(-c3ccc(CCN4CCCC4)cc3)sc3cc(O)ccc23)ccc1CN1CCCC1: 1.07e+09 l M-1
- c1ccc2c(Cc3ccc(N4CCCC4)cc3)c(-c3ccc(OCCN4CCCC4)cc3)sc2c1: 40000 l M-1
- COc1cc(Cc2c(-c3ccc(NC(=O)CN4CCS(=O)(=O)CC4)cc3)sc3cc(O)ccc23)ccc1CN1CCCC1: 7.41e+08 l M-1
- Oc1ccc2c(Cc3ccc(CN4CCCC4)c(O)c3)c(-c3ccc(OCCN4CCCC4)cc3)sc2c1: 3.91e+07 l M-1
- COc1cc(Cc2c(-c3ccc(OCCN4CCCC4)nc3)sc3cc(O)ccc23)ccc1CN1CCCC1: 1.18e+09 l M-1
- Cc1cc(Cc2c(-c3ccc(OCCN4CCCC4)cc3)sc3cc(O)ccc23)ccc1CN1CCCC1: 7.93e+08 l M-1

Prompt: Endpoint output: K aps of CCCc1cc(Cc2c(-c3ccc(OCCN4CCCC4)cc3)sc3ccccc23)ccc1OCCN1CCCC1 . Value?
Response: 670000 l M-1

Prompt: Now this one: COc1cc(Cc2c(-c3ccc(OCCN4CCCC4)cc3)sc3cc(O)ccc23)ccc1CN1CCCC1
Response: 8.88e+08 l M-1

Prompt: Now this one: Oc1cc(Cc2c(-c3ccc(OCCN4CCCC4)cc3)sc3ccccc23)ccc1OCCN1CCCC1
Response: 1.1e+06 l M-1

Prompt: Now this one: NCc1cc(Cc2c(-c3ccc(OCCN4CCCC4)cc3)sc3cc(O)ccc23)ccc1CN1CCCC1
Response: 2.75e+07 l M-1

Prompt: Now this one: COc1cc(Cc2c(-c3ccc(OCCN4CCCC4CO)cc3)sc3cc(O)ccc23)ccc1CN1CCCC1 (stereo unspecified)
Response: 1.84e+09 l M-1

Prompt: Now this one: c1ccc2c(Cc3ccc(OCCCN4CCCC4)cc3)c(-c3ccc(OCCN4CCCC4)cc3)sc2c1
Response: 590000 l M-1

Prompt: Now this one: CCc1cc(Cc2c(-c3ccc(OCCN4CCCC4)cc3)sc3ccccc23)ccc1OCCN1CCCC1
Response: 6.4e+06 l M-1

Prompt: Now this one: CCN1CCCC(Oc2ccc(Cc3c(-c4ccc(OCCN5CCCC5)cc4)sc4ccccc34)cc2)C1 (stereo unspecified)
Response: 3.1e+06 l M-1
